Tested on: L5178Y cells
Where a name gives a salt, the structure may show the parent alone.
Measurement label: Cell Cycle Effect

* NC(=O)NO [Hydroxyurea] | +++
* C[C@@H]1C[C@H]2[C@@H]3CCC4=CC(=O)C=C[C@]4(C)[C@@]3(F)[C@@H](O)C[C@]2(C)[C@@]1(O)C(=O)CO | −
* CC[C@]1(O)C[C@@H]2CN(CCc3c([nH]c4ccccc34)[C@@](C(=O)OC)(c3cc4c(cc3OC)N(C)[C@H]3[C@@](O)(C(=O)OC)[C@H](OC(C)=O)[C@]5(CC)C=CCN6CC[C@]43[C@@H]65)C2)C1 [Vinblastine sulfate] | +++
* OC[C@H]1O[C@@](CO)(O[C@H]2O[C@H](CO)[C@@H](O)[C@H](O)[C@H]2O)[C@@H](O)[C@@H]1O | −
* COS(C)(=O)=O [Methyl methanesulfonate] | +++
